Attribution: DBAASP

Reported MIC values, Bacillus subtilis ATCC 23857.
Answers are plain numbers, in µM.

smilesEntry: NC(=O)[C@H](Cc1c[nH]c2ccccc12)NC(=O)[C@H](Cc1c[nH]c2ccccc12)NC(=O)[C@H](CCCN=C(N)N)NC(=O)[C@H](Cc1c[nH]c2ccccc12)NC(=O)[C@H](Cc1c[nH]c2ccccc12)NC(=O)[C@H](Cc1c[nH]c2ccccc12)NC(=O)[C@H](CCCN=C(N)N)NC(=O)[C@H](Cc1c[nH]c2ccccc12)NC(=O)[C@@H](N)Cc1c[nH]c2ccccc12
experimentalValue: 4

// next entry
Query CC(C)C[C@H](NC(=O)[C@H](CCCN=C(N)N)NC(=O)[C@H](CCCN=C(N)N)NC(=O)[C@H](Cc1c[nH]c2ccccc12)NC(=O)[C@H](Cc1c[nH]c2ccccc12)NC(=O)[C@H](Cc1c[nH]c2ccccc12)NC(=O)[C@H](CCCN=C(N)N)NC(=O)[C@H](CCCN=C(N)N)NC(=O)[C@@H](N)CC(C)C)C(N)=O yields MIC of 2

###

Reported MIC values, Candida albicans ATCC 90028.

Consider the following illustrative entries.
smilesEntry: CC[C@H](C)[C@H](NC(=O)CNC(=O)[C@H](CCCCN)NC(=O)[C@H](CC(C)C)NC(=O)[C@@H](N)Cc1ccccc1)C(=O)N[C@H](C(=O)NCC(=O)N[C@@H](CCSC)C(=O)N[C@@H](CC(C)C)C(=O)NCC(=O)N[C@@H](CCCCN)C(=O)N[C@@H](CC(C)C)C(=O)N[C@@H](Cc1ccccc1)C(N)=O)C(C)C
MIC: 6 µM
--
smilesEntry: C[C@@H](O)[C@@H]1NC(=O)CNC(=O)[C@H](CCCCN)NC(=O)[C@H](Cc2ccccc2)NC(=O)[C@@H](NC(=O)[C@H](Cc2ccccc2)NC(=O)[C@@H](N)CCCN=C(N)N)CSSC[C@@H](C(=O)NCC(=O)O)NC(=O)[C@@H]2CCCN2C1=O
MIC: 17.9 µM

// next entry
Query CC[C@H](C)[C@H](NC(=O)CN)C(=O)N[C@@H](Cc1c[nH]c2ccccc12)C(=O)N[C@@H](CCCCN)C(=O)N[C@@H](CCCCN)C(=O)N[C@@H](Cc1c[nH]c2ccccc12)C(=O)N[C@H](C(=O)N[C@@H](CCCCN)C(=O)N[C@@H](CCCCN)C(=O)N[C@H](C(=O)N[C@H](C(=O)N[C@@H](CC(N)=O)C(=O)N[C@H](C(=O)N[C@@H](CC(C)C)C(=O)N[C@@H](CCCCN)C(=O)N[C@@H](CC(N)=O)C(=O)N[C@@H](CC(C)C)C(=O)N[C@@H](Cc1ccccc1)C(N)=O)C(C)C)C(C)C)C(C)C)[C@@H](C)CC yields MIC of 14.5 µM

###

system: Staphylococcus aureus ATCC 43300
observedProperty: MIC (µM)
Give bare numbers, in µM.

Query CC[C@H](C)[C@H](NC(=O)[C@H](CCCN=C(N)N)NC(=O)[C@@H](NC(=O)[C@@H](NC(=O)[C@@H](NC(=O)[C@H](CCCN=C(N)N)NC(=O)[C@@H](NC(=O)[C@H](CCCN=C(N)N)NC(=O)[C@@H](N)CCCN=C(N)N)[C@@H](C)CC)[C@@H](C)CC)[C@@H](C)CC)[C@@H](C)CC)C(=O)N[C@@H](CCCN=C(N)N)C(=O)N[C@@H](CCCN=C(N)N)C(N)=O yields MIC of 4
